Just for reference, ChEMBL document CHEMBL3991601 is where these values come from.

TARGET_OF_ASSAY: Cyclin-dependent kinase 7 (Homo sapiens); note: in the data inactive means no Kd found up to 30 µM
Sequence (P50613 whole entry): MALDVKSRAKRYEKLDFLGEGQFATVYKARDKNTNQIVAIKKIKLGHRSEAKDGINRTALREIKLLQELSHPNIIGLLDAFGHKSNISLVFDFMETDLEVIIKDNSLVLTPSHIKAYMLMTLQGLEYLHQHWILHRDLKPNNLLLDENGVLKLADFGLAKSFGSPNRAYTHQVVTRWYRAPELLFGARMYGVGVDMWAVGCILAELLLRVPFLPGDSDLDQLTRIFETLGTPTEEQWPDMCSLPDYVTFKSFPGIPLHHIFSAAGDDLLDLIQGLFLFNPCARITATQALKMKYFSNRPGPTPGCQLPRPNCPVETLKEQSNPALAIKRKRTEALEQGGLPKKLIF
Activity calls are given as the source filed them.
Consider the following compounds; for each one, report its Kd.

Query: Check the records and state Kd for Cc1cccc(-c2nn3c(c2-c2ccnc4ccc(C(N)=O)cc24)CCC3)n1 [GALUNISERTIB]
Reply: > 30 µM (inactive)

Query: Answer with the recorded Kd of `Cc1nc2cc(-c3nn(C(C)C)c4ncnc(N)c34)ccc2o1` only.
Reply: > 30 µM (inactive)

Query: Please give measured Kd of the following entry: COc1cc2ncnc(Oc3cccc(NC(=O)Nc4cc(C(C)(C)C(F)(F)F)on4)c3)c2cc1OC [CEP-32496]
Reply: > 30 µM (inactive)
